Assay: In vivo pharmacokinetic experiment in mice
Design: species or system CD-1 female mice
Details: female, mouse, plasma; CD-1 mice, injection (IV) 2 mg/kg
Experimental readout: AUC(0-t)
Give the value; after it, write the unit.

AUC(0-t) reported for this compound `COc1cc(C(=O)NC2CCC3(CC2)CN(C)C3)c(F)cc1Nc1ncc(C(F)(F)F)c(Oc2cccc3c2C(=O)N(C)C3)n1` : 622 ng·h/mL

====

Test system: PC3 cells
Experiment: PC3 cell proliferation, 3D activity detection
Format: cell-based, human
Conditions: Homo sapiens, PC-3, 336 h; PC3, 3D culture, 14 days, numeric (mean where marked *); read-out: 3D IC50 against PC3 cells
Experimental readout: pIC50
Note on pIC50: it is the negative log10 of concentration, concentration in mol/L.

COc1cc(C(=O)NC2CCC23CCN(C)CC3)c(F)cc1Nc1ncc(C(F)(F)F)c(Oc2cccc3c2C(=O)N(C)C3)n1 (centres unmarked) [Compound 21]	8.88
COc1cc(N2CC3(CCN(C)CC3)C2)ccc1Nc1ncc(F)c(Oc2cccc3c2C(=O)N(C)C3)n1 [Compound 115]	7.17
COc1cc(N2CC3(CCN(C)CC3)C2)ccc1Nc1ncc(C#N)c(Oc2cccc3c2C(=O)N(C)C3)n1 [Compound 113]	8.80
COc1cc(N2CC3(CCN(C)CC3)C2)ccc1Nc1ncc(Br)c(Oc2cccc3c2C(=O)N(C)C3)n1 [Compound 112]	9.18

Alright, here's another compound for you.
pIC50 reported for this compound COc1cc(C(=O)N2CC3(CCN(C)CC3)C2)c(F)cc1Nc1ncc(C(F)(F)F)c(Oc2cccc3c2C(=O)N(C)C3)n1 [Compound 34] : 7.38

====

Test system: PC3 cells
Assay: PC3 cell proliferation, 2D activity detection
Type: cell-based, human
Details: Homo sapiens, PC-3; PC3, 2D, 72 h, class symbol; read-out: 2D IC50 against PC3 cells
Protocol: 2D activity detection: 1200 PC3 cells were seeded in a 96-well plate. After overnight adherence culture, the compound serially diluted was added. 72 h after addition, Cell Titer-Lumi (Beyotime C0068XL) was added to measure the ATP content in the cells. The growth of the cells was evaluated, and IC50 of the compounds against cell growth was calculated.
pIC50: −log10 of the molar value.
Experimental readout: pIC50

CCN1CCC2(CC1)CN(c1ccc(Nc3ncc(C(F)(F)F)c(Oc4cccc5c4C(=O)N(C)C5)n3)c(OC)c1)C2 [Compound 103]	< 5.70

Per the reported PC3 cells data, [2H]C([2H])([2H])N1CCC2(CC1)CC(NC(=O)c1cc(OC)c(Nc3ncc(C(F)(F)F)c(Oc4cccc5c4C(=O)N(C)C5)n3)cc1F)C2 [Compound 47] has pIC50 of < 5.70

Per the reported PC3 cells data, COc1cc(N2CCC3(CCN(C)C3)CC2)ccc1Nc1ncc(C(F)(F)F)c(Oc2cccc3c2C(=O)N(C)C3)n1 [Compound 95] has pIC50 of < 5.70

====

Tested on: PC3 cells
Assay: Inhibition of PC3 cell adherence
Format: cell-based
Conditions: Homo sapiens, PC-3; PC3, 4 h treatment; read-out: Inhibitory activity against PC-3 cell adherence IC50
Experimental readout: pIC50
Note on pIC50: it is the negative log10 of concentration, concentration in mol/L.

Example results:
COc1cc(N2CC3(CCNCC3)C2)ccc1Nc1ncc(C(F)(F)F)c(Oc2cccc3c2C(=O)N(C)C3)n1	8.52
COc1cc(C(=O)NC2CCC23CCN(C)CC3)c(F)cc1Nc1ncc(C(F)(F)F)c(Oc2cccc3c2C(=O)N(C)C3)n1 (centres unmarked)	8.07
COc1cc(N2CC3(CCN(C)C3)OCC2=O)c(F)cc1Nc1ncc(C(F)(F)F)c(Oc2cccc3c2C(=O)N(C)C3)n1 (centres unmarked)	8.15
COc1cc(N2CC3(CCN(C)CC3)C2)ccc1Nc1ncc(C#N)c(Oc2cccc3c2C(=O)N(C)C3)n1	8.45
COc1cc(N2CCC3(CC2)CN(C)C3)ccc1Nc1ncc(C(F)(F)F)c(Oc2cccc3c2C(=O)N(C)C3)n1	8.52
COc1cc(N2CC3(CCN(C)CC3)C2)ccc1Nc1ncc(C(F)(F)F)c(Oc2cccc3c2C(=O)N(C)C3)n1	8.73

pIC50 reported for this compound `COc1cc(N2CC3(CCN(C)CC3)CC2=O)c(F)cc1Nc1ncc(C(F)(F)F)c(Oc2cccc3c2C(=O)N(C)C3)n1` : 8.54

pIC50 reported for this compound COc1cc(N2CC3(CCN(C)CC3)C2)ccc1Nc1ncc(C(F)(F)F)c(Oc2cccc3c2C(=O)N(C)C3C)n1 (centres unmarked) : 8.88
